Ki values recorded for metabotropic glutamate receptor subtype 5 (Rattus norvegicus (Rat))
Reply numerically in nM, unit not repeated.

Some compounds with recorded Ki:
Reported Ki ( "Cc1nc(C#Cc2ccc(-c3ccc(F)c(C)c3)nc2)cs1" ) = 5.5

Reported Ki ( Cc1nc(C#Cc2cnc(N3CCCC3C)nc2)cs1 (centres unmarked) ) = 1.5

---
Reported Ki ( "Cc1nc(C#Cc2ccc(-c3cccc(F)c3)nc2)cs1" ) = 2.7

Reported Ki ( "COc1cccc(-c2ccc(C#Cc3csc(C)n3)cn2)c1F" ) = 9

Reported Ki ( "Cc1nc(C#Cc2ccc(SC(C)(C)C)nc2)cs1" ) = 0.9

---

Entries and their IC50 values follow.
molecular target: UniProtKB P41594; experiment: Calcium Flux Assay; conditions: hmGluR5a/L38-20 cells, glutamate-evoked [Ca2+]i
Sequence (P41594 other isoform, or with tags, fused parts or gaps): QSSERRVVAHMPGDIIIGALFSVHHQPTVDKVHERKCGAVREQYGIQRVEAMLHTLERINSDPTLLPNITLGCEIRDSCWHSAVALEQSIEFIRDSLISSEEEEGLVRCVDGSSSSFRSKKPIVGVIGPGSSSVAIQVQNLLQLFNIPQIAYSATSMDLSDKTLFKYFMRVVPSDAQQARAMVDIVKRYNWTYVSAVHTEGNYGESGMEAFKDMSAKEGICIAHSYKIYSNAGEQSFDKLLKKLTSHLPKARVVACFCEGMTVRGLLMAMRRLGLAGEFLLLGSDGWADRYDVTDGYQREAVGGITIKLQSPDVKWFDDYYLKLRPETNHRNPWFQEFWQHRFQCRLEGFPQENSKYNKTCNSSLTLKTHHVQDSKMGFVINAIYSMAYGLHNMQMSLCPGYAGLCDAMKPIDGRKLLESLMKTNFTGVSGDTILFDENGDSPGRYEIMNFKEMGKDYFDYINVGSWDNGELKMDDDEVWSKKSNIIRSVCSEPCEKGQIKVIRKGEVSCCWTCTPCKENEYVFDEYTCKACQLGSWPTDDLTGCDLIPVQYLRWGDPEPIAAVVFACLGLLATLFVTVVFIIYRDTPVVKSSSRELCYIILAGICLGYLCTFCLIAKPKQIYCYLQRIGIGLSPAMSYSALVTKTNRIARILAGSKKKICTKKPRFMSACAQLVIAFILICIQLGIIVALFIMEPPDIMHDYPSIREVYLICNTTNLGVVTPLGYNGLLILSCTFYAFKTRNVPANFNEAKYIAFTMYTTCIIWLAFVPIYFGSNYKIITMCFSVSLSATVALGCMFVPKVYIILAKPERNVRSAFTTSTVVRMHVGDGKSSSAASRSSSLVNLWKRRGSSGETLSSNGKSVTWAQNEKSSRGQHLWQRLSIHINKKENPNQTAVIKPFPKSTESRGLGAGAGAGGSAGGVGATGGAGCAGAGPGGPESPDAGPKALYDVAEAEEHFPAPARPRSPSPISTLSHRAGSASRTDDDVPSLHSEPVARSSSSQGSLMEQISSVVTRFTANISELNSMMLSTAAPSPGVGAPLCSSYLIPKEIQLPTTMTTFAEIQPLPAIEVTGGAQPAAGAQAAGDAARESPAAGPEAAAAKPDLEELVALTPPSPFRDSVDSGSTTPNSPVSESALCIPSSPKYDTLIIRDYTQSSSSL
Reply numerically in nM, unit not repeated.

Reported IC50 ( Cc1ccc(C)c(-c2ccc(C#Cc3csc(C)n3)cn2)c1 [Example 38] ) = 13

Reported IC50 ( COc1ccccc1-c1ccc(C#Cc2csc(C)n2)cn1 [Example 8] ) = 1

Reported IC50 ( CC[C@H](C)Nc1ccc(C#Cc2csc(C)n2)cn1 [Example 62] ) = 6

Reported IC50 ( CCOc1ccccc1-c1ccc(C#Cc2csc(C)n2)cn1 [Example 89] ) = 1.6

Reported IC50 ( Cc1nc(C#Cc2ccc(-c3ccc(F)c(F)c3)nc2)cs1 [Example 45] ) = 11

Reported IC50 ( Cc1nc(C#Cc2cnc(N3CCCCC3C)nc2)cs1 (centres unmarked) [Example 96] ) = 5

Next compound, please.
Reported IC50 ( Cc1nc(C#Cc2cnc(N3CCCC3)nc2)cs1 [Example 97] ) = 5
